Hello, the source for this data is paper PMC10224356, in case you need it.

- TARGET OR SYSTEM: hH4R (Homo sapiens, UniProt Q9H3N8)
- Sequence (Q9H3N8 whole entry): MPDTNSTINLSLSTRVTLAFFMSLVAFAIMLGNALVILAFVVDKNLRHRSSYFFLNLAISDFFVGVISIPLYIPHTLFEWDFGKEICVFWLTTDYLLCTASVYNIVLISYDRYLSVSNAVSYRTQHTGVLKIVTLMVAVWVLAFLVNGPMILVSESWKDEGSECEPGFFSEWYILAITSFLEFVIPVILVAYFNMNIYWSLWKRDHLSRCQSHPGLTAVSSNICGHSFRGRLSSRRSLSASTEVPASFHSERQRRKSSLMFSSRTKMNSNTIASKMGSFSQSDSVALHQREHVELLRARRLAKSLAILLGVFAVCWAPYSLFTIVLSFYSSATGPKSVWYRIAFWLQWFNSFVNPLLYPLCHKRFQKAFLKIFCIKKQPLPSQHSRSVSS
- EXPERIMENT DESCRIPTION: cAMP accumulation assay (LANCE Ultra cAMP, CHO-K1 cells stably expressing hH4R)
- Assay type: cell-based
- Set-up: expressed in transfected cells
- COND: antagonist mode
cAMP hH4R % of max. Antagonist Activity at 10 µM reference
Report the figure along with its unit, number first.

Some compounds with recorded cAMP hH4R % of max. Antagonist Activity at 10 µM:
C=CCCc1nc(N)nc(N2CCN(C)CC2)n1; 104%
CCCC(C)c1nc(N)nc(N2CCN(C)CC2)n1 (stereo not shown); 100%
C=CC(C)Cc1nc(N)nc(N2CCN(C)CC2)n1 (stereo not shown); 104%
CN1CCN(c2nc(N)nc(C3CCCC3)n2)CC1; 95%
CN1CCN(c2nc(N)nc(C3CCCCC3)n2)CC1; 98%
CN1CCN(c2nc(N)nc(CC3CCCC3)n2)CC1; 100%

Request: Name the recorded cAMP hH4R % of max. Antagonist Activity at 10 µM of the compound listed here: `CCCCc1nc(N)nc(N2CCN(C)CC2)n1`
Result: 105%

Request: Give the reported value of cAMP hH4R % of max. Antagonist Activity at 10 µM for this record: C=CCC(C)c1nc(N)nc(N2CCN(C)CC2)n1 (stereo not shown)
Result: 94%

Request: Indicate its recorded cAMP hH4R % of max. Antagonist Activity at 10 µM; the compound in question is CN1CCN(c2nc(N)nc(CC3C=CCC3)n2)CC1 (stereo not shown)
Result: 104%

Request: Assign cAMP hH4R % of max. Antagonist Activity at 10 µM to the following record: `CC(C)CCc1nc(N)nc(N2CCN(C)CC2)n1`
Result: 107%

Request: Dear colleague, please send me the reported cAMP hH4R % of max. Antagonist Activity at 10 µM for `CN1CCN(c2nc(N)nc(CC3=CCCCC3)n2)CC1` when you can.
Result: 98%

Request: # return recorded cAMP hH4R % of max. Antagonist Activity at 10 µM for input `CN1CCN(c2nc(N)nc(C3CC3)n2)CC1`
Result: 99%
